Assay: solubility in water
Type: physicochemical
Conditions: free acid
QUANTITY_KIND: solubility

Record request: solubility value, item `CC(C)(C)[N+]([O-])=Cc1ccc(S(=O)(=O)O)cc1S(=O)(=O)O`
> 1000 mg/mL
